Molecular target: dopamine transporter (DAT) (Rattus norvegicus)
Sequence (P23977 whole entry): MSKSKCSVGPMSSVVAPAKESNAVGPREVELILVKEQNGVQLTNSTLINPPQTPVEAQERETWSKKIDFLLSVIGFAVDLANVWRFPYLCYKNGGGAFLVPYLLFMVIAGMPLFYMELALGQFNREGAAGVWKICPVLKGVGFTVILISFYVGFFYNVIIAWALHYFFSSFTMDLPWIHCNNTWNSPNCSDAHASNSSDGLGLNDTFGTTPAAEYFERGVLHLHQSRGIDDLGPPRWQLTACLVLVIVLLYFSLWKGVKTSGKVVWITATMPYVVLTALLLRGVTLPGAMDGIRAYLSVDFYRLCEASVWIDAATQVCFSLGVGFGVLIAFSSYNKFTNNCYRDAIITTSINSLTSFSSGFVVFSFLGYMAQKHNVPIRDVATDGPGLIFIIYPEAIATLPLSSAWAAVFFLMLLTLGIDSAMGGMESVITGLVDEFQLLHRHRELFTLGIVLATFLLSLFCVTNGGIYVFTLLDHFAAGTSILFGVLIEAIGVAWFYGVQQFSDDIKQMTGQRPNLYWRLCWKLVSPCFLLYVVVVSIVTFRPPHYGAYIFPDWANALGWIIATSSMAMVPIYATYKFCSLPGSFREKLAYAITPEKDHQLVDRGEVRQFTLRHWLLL
Assay: Dopamine reuptake ([^3H]dopamine uptake) inhibition in rat brain synaptosomes
Settings: DA Uptake EC50 (nM ± SD), rat caudate synaptosomes; 5 nM [^3H]dopamine; 15 min, 25° C.; three experiments pooled
VALUE_KIND: IC50 (nM)
Answers are plain numbers, in nM.

molecule=Cn1cnc2ccc(-c3nc(NCC(c4ccccc4)c4ccccc4)c4ccccc4n3)cc21 unit_of_measure=nM recorded_result=19
molecule="Cc1cc2nccn2cc1-c1nc(NCC(c2ccccc2)C(C)C)c2ccccc2n1 (centres unmarked)" unit_of_measure=nM recorded_result=1.8
molecule=c1ccc(C(CCNc2nc(-c3ccc4nccn4c3)nc3ccccc23)c2ccccc2)cc1 unit_of_measure=nM recorded_result=78
molecule=Nc1ncc(-c2nc(NCC(c3ccccc3)c3ccccc3)c3ccccc3n2)cn1 unit_of_measure=nM recorded_result=79

## Input Look up IC50 with dopamine transporter (DAT) (Rattus norvegicus) for this molecule: CC(=O)N[C@H](CNc1nc(-c2ccc3nccn3c2)nc2ccccc12)c1ccccc1
## Output 3720
